These entries and their values trace back to patent US20210380703A1.

- TEST_SYSTEM: T1, human ACVR2A (human, UniProt P27037 20-135, limits assumed); note: test concentration or dose not given here
- T1 construct: coated antigen of the initial ELISA; also called activin receptor, type II A
- T1 sequence (P27037 20-135 limits assumed): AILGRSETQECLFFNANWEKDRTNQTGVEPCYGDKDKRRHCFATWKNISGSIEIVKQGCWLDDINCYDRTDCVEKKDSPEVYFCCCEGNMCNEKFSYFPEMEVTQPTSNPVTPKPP
- PROCEDURE_DETAILS: ELISA
MEASURED_ATTRIBUTE: optical density (OD)
Note: unit OD is implicit; provide only the numeric part.

>  <BINDER>
376_A03 (antibody, V domains shown, Group III) VH: EVQLLESGGGLVQPGGSLRLSCAASGFTFSSYGMNWVRQAPGKGLEWVAGINYNGGYTGYADSVKGRFTISRDNSKNTLYLQMNSLRAEDTAVYYCARGANWHDTALDYWGQGTLVTVSS VL: DIQMTQSPSSLSASVGDRVTITCRASQSILTYLNWYQQKPGKAPKLLIYAATSRASGVPSRFSGSGSGTDFTLTISSLQPEDFATYYCQQSYSTPLTFGGGTKVEIK

>  <optical density, OD>
3.61

$$$$
>  <BINDER>
373_F11 (antibody, V domains shown, Group III) VH: EVQLLESGGGLVQPGGSLRLSCAASGFTFDSYGMHWVRQAPGKGLEWVSGINYNSGYTSYADSVKGRFTISRDNSKNTLYLQMNSLRAEDTAVYYCARGANWHDTHLDYWGQGTLVTVSS VL: DIQMTQSPSSLSASVGDRVTITCRASQSIVSYVNWYQQKPGKAPKLLIYAATSRASGVPSRFSGSGSGTDFTLTISSLQPEDFATYYCQQSYNLPLTFGGGTKVEIK

>  <optical density, OD>
3.35

$$$$
>  <BINDER>
371_F11 (antibody, V domains shown, Group III) VH: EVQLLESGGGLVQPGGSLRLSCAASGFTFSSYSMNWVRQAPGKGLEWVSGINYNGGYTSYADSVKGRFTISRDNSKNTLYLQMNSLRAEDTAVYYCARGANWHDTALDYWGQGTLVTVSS VL: DIQMTQSPSSLSASVGDRVTITCRASQSIISYVNWYQQKPGKAPKLLIYAVTSRASGVPSRFSGSGSGTDFTLTISSLQPEDFATYYCQQSYDLPLTFGGGTKVEIK

>  <optical density, OD>
3.04

$$$$
>  <BINDER>
371_G02 (antibody, V domains shown, Group III) VH: EVQLLESGGGLVQPGGSLRLSCAASGFTFDSYGMNWVRQAPGKGLEWVASINYNGGYTSYADSVKGRFTISRDNSKNTLYLQMNSLRAEDTAVYYCARGANWHDTHLDYWGQGTLVTVSS VL: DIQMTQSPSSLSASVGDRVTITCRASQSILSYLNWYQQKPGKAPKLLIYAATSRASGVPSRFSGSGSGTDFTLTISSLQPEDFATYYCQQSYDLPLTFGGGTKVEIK

>  <optical density, OD>
3.12

$$$$

The value of optical density measured for the binder 367_H03 (antibody, V domains shown, Group III) VH: EVQLLESGGGLVQPGGSLRLSCAASGFTFSSYGMNWVRQAPGKGLEWVAGINYNSGYTSYADSVKGRFTISRDNSKNTLYLQMNSLRAEDTAVYYCARGANWHDTHLDYWGQGTLVTVSS VL: DIQMTQSPSSLSASVGDRVTITCRASQSIITYVNWYQQKPGKAPKLLIYAATSLASGVPSRFSGSGSGTDFTLTISSLQPEDFATYYCQQSYDLPLTFGGGTKVEIK turned out to be 2.04
